# TARGET OF ASSAY: human V1a receptor (hV1a) (Homo sapiens)
# Construct: expressed in transfected cells; host or cells: HEK cells, transient transfection; membrane preparation
# Sequence (P37288 whole entry): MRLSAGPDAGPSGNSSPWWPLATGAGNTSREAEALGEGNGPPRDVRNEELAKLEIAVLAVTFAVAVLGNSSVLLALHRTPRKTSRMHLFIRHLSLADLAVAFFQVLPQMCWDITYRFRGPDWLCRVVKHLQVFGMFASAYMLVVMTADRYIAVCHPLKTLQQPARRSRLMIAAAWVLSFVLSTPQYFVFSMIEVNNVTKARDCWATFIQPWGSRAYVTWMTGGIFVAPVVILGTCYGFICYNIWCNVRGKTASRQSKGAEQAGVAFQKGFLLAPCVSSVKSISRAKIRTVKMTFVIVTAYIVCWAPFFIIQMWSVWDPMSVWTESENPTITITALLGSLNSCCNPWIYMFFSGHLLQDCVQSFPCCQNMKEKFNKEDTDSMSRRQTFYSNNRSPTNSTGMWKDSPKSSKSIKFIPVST
# EXPERIMENTAL PROTOCOL: Radioligand binding assay (3H-AVP, SPA), human V1a
# EXPERIMENTAL PARAMETERS: Ki ± SEM (n); 1 nM 3H-AVP; read-out: Ki V1a Human
# Description: The test compound was initially dissolved in DMSO at a concentration of 10 mM. Subsequent dilutions were made in assay buffer with a maximum final concentration of 0.2% DMSO. Recombinant vasopressin V1a (human: hV1a; mouse: mV1a), V1b (human: hV1b) were independently expressed in human embryonic kidney (HEK) cells using transient transfection. […] The concentration of protein was determined, and the membranes were aliquoted and stored at −80° C. until further use. […]
OUTCOME MEASURE: pKi
pKi field: float, defined as -log10 of concentration (mol/L).

## Input Identify measured pKi associated with "CN1Cc2cc(Cl)ccc2-n2c(nnc2[C@H]2CC[C@H](Oc3ccccn3)CC2)C1"
## Output 9.15

###

# TARGET OF ASSAY: mouse V1a receptor (mV1a) (Mus musculus)
# Sequence (Q62463 whole entry): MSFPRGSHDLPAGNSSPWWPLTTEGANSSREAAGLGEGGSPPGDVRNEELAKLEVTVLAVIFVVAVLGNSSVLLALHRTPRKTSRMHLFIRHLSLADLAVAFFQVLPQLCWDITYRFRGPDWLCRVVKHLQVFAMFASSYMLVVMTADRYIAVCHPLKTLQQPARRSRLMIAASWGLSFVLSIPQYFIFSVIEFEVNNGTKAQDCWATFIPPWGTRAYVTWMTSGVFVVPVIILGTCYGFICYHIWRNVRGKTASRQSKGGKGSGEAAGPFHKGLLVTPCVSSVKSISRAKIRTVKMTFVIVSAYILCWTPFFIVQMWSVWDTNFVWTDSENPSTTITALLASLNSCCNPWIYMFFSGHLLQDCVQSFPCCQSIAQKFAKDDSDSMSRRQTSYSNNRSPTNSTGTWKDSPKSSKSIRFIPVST
OUTCOME MEASURE: Ki (nM)
Give the value in nM but do not write nM after it.

## Input Provide measured Ki value, entry: "CN1Cc2cc(Cl)ccc2-n2c(nnc2[C@H]2CC[C@H](Oc3ccccn3)CC2)C1"
## Output 77
